Target: Dimer of Gag-Pol polyprotein [489-587] (Human immunodeficiency virus 1, UniProt P04585)
Construct: 489-587
Assay: Protease Inhibition Assay
Settings: pH 5; 22 °C
Quantity Kind: Ki (nM)
Use nM as the unit, but write only the number.

Query :: Report Ki for N#Cc1cccc(S(=O)(=O)Nc2cccc(C(c3c(O)c4c(oc3=O)CCCCCC4)C3CC3)c2)c1 (stereo unspecified) please.
Result :: 0.6
